- Test system: MDA-MB-231 breast
- experimental.details: NCI-60 one-dose screen, 48 h
- run.conditions: 10 µM unless noted
Compounds without any hit were thinned out: in the full panel of roughly 83,000, 20% have a hit. Active and inactive are the calls of the source. Rule for the calls: active = growth percent below 10; inactive = the rest.
Outcome (select one): T = active, F = inactive

Challenge: Outcome logged for "Cc1ccc(S(=O)(=O)NCCCNc2nc(Nc3ccc(N4CCN(C)CC4)cc3)nc3ccsc23)cc1" in this assay:
Response given: F

Challenge: Kindly provide the recorded test outcome for the following compound: "N#Cc1cnc2ccc(-c3cnc4n[nH]nc4c3)cc2c1N1CCc2cc(F)c(Cl)cc21"
Response given: F

Challenge: Identify the outcome logged in this assay for the compound shown: "COc1ccccc1/C=C1\Oc2ccc(O)c(O)c2C1=O"
Response given: F

Challenge: Please let me know the test result on file for "O=C1Nc2cc(Cl)ccc2/C1=C\c1ccc(OCc2ccccc2)cc1" .
Response given: F

Challenge: What is the recorded call for this compound in the test? "O=C(CSc1nc2ccccc2c(=O)n1-c1ccc(Cl)c(Cl)c1)Nc1ccc(S(=O)(=O)Nc2ccc(Cl)nn2)cc1"
Response given: F

Challenge: Returns: the outcome recorded for "CCCc1[nH]c(-c2cc(N)ccc2Cl)c2c1C(=O)CCCC2" in this assay.
Response given: F

Challenge: Assay outcome for O=S1SC(c2ccccc2)=NN1c1cc(F)cc(F)c1 (stereo unspecified) : what was it?
Response given: F

Challenge: Hi team, can someone confirm the assay call for CC(=O)N1N=C(c2cc3ccccc3oc2=O)CC1c1cn(-c2ccccc2)nc1-c1ccc(C)cc1 (stereo unspecified) ?
Response given: F

Challenge: How did this test come out for "COc1ccc(-c2cnc(NC(=O)CCCCCCNC(=O)C(O)(O)C(F)(F)F)s2)cc1" ?
Response given: F

Challenge: Identify the outcome logged in this assay for the compound shown: NS(=O)(=O)c1ccc(Nc2nc(Nc3ccccc3)nc(N3N=C(c4ccc(Cl)cc4)CC3c3ccc(Cl)cc3)n2)cc1 (stereo unspecified)
Response given: F

Challenge: Query: recorded result category for "O=c1c2cc(-c3ccc(F)cc3F)ccc2n(Nc2ccccc2)c(=O)n1-c1cccc(C(F)(F)F)c1" in this test
Response given: T

----------
- Test system: UACC-62 melanoma
- experimental.details: NCI-60 one-dose screen, 48 h (100 = growth as untreated, 0 = no growth, -100 = all killed)
- run.conditions: 10 µM unless noted
Compounds without any hit were thinned out: in the full panel of roughly 83,000, 20% have a hit. The source made the active and inactive calls. The calls were made as follows: active = growth percent below 10; inactive = the rest.
measure.name: growth

growth recorded for this compound, "N#Cc1c(-c2cccs2)cc(-c2cnccn2)nc1SCC(=O)N/N=C/c1ccc(Cl)cc1" , is 91.3% (inactive)

Note to self: growth recorded for "CCn1c2ccc(/C=N/N(C)S(=O)(=O)CCN(C)C)cc2c2cc(/C=N/N(C)S(=O)(=O)CCN(C)C)ccc21" was 81.7% (inactive)

Lookup result for "O=c1[nH][nH]c(-c2ccc(F)cc2)c1-c1nc2ccccc2s1" ; measured growth: 81.8% (inactive)

Just so you know, measured growth for "Cc1ccccc1N1CCN(C2=C(Cl)C(=O)c3ncccc3C2=O)CC1" came out at 66.2% (inactive)

For record "CC(C)Sc1nc(-c2ccccc2)c(C#N)c(N2CCOCC2)n1" the listed growth is 91.7% (inactive)

Form field growth, entry "C#C[C@]1(O)CC[C@H]2[C@@H]3CC=C4c5sc(N6CCN(C)CC6)nc5CC[C@]4(C)[C@H]3CC[C@@]21C" : 51.2% (inactive)

Sample "O=C(CCCCCCNC(=O)C(O)(O)C(F)(F)F)Nc1nc2ccccc2s1" ; growth observed: -62.7% (active)

// growth value for "COc1ccc(C(=O)c2c(N)c(C#N)cn2-c2ccc(Cl)cc2Cl)cc1" : 89.6% (inactive)

For reference, reported growth for C#CCOc1ccccc1C(OC(=O)c1ccccc1)C(=O)NC(C)(C)C(C)(C)C (stereo not given) stands at 66.9% (inactive)

Please fill in: growth reported for "Cc1ccc2c(n1)C(=O)C(Cl)=C(Nc1cccc(C(=O)OC(C)(C)C)c1)C2=O" = 90.7% (inactive)

Looking up "CS(=O)(=O)c1nccc(-c2c(-c3cccc(OCc4ccc(Cl)c(C(F)(F)F)c4)c3)nc3sccn23)n1" , I found its growth recorded as 87.5% (inactive)

growth reported for this compound "COc1cc(C(=O)c2cc(C(C)=O)c3ccc(C)cn23)cc(OC)c1OC" : 17.2% (inactive)

The value of growth measured for the compound "CCOC(=O)Nc1ccc2c(ccn2C(=O)c2cccc(F)c2)c1" turned out to be 32.3% (inactive)

Measured growth of "CN(C)c1ccc(-c2cc(-c3c[nH]c4ccccc34)nc(N)c2C#N)cc1" : 42% (inactive)

Briefly, growth measured for "Nn1c(=O)n(-c2cccc(C(F)(F)F)c2)c(=O)c2cc(-c3ccc(F)cc3F)ccc21" : 1.73% (active)

Note to self: growth recorded for "COC(=O)c1cccc(NC2=CC(=O)C(C)=C(C)C2=O)c1" was 96.2% (inactive)

Sample "C=C(C)[C@@H]1CC[C@]2(C(=O)O)CC[C@]3(C)[C@H](CC[C@@H]4[C@@]5(C)C/C(=C/c6ccccn6)C(=O)C(C)(C)[C@@H]5CC[C@]43C)[C@@H]12" ; growth observed: 40.1% (inactive)

Lab book: growth of "Cn1cc(-c2nn3cc(-c4ccncc4)nc3s2)c2cc(Br)ccc21" noted as 61.5% (inactive)

Briefly, growth measured for "CC1=C(C)C(=O)C(Nc2ccc3c(c2)OCCO3)=C(Br)C1=O" : 92.1% (inactive)

growth measured on "CN1CCN(c2ccc(Nc3nc(NCCNC(=O)c4ccccc4)c4sccc4n3)cc2)CC1" = 53% (inactive)

Record summary for C=CCSC1=NC2C(N(CC)C(=O)N2CC)N1/N=C/C=C/c1ccccc1OC (stereo not given) : reported growth = 54.6% (inactive)

The measured growth associated with "CCN(CC)S(=O)(=O)c1ccc(-c2nc(C(Cl)Cl)nc3cc(C)nn23)cc1" reads 49.9% (inactive)

For this compound ( "COc1ccc(/C=N/NC(=O)CSc2nc(-c3cnccn3)cc(-c3cccs3)c2C#N)cc1OC" ), measured growth is 19.8% (inactive)

The compound listed as "COc1cc2oc(-c3cccc(NC(=O)c4cccc([N+](=O)[O-])c4)c3)cc(=O)c2c(OC)c1OC" shows growth equal to 51% (inactive)

Lab note: "O=C(/C=C/c1ccccc1Cl)Nc1ncc(Cc2cc(Cl)ccc2Cl)s1" gave growth of 23.2% (inactive)

// growth lookup, compound = C=C(C=O)[C@@H]1CC[C@]2(C(=O)O)CC[C@]3(C)C(CC[C@@H]4[C@@](C)(CCC#N)[C@H](C(=C)C=O)CC[C@]43C)[C@@H]12 (stereo not given in full) , result: 30.9% (inactive)

Entry under test: "CC(C)(C)Nc1nc2c(OCCc3ccccc3)cccn2c1-c1cccc(Oc2ccccc2)c1" . Its growth was 15% (inactive)

// recorded growth for "COc1cc2oc(-c3cccc(NC(=O)[C@@H](N)C(C)C)c3)cc(=O)c2c(OC)c1OC" : 91.3% (inactive)

Documented growth of "Cc1cccc(N2CCN(C3=C(Cl)C(=O)c4ncccc4C3=O)CC2)c1" : 74.3% (inactive)

// sample "O=S(=O)(NCCCNc1nccc(-c2[nH]c(-c3ccccc3)nc2-c2ccc(F)c(O)c2)n1)c1ccc(C(F)(F)F)cc1" , its growth was 2.32% (active)

Kindly note the recorded growth for "CN1CCN(c2ccc(Nc3nc(NCCCNS(=O)(=O)c4ccc(F)cc4)c4sccc4n3)cc2)CC1" , which is 21.1% (inactive)

"Cn1cc(-c2nnc(N)nc2-c2c[nH]c3ccc(F)cc23)c2cc(Br)ccc21" yielded growth of 30.3% (inactive)

Entry "COc1ccc(C(C)=C(c2ccc(OCCN(C)C)cc2)c2ccc(OCCN(C)C)cc2)cc1" , growth reported as -66.3% (active)

Documented growth of "C[C@H]1OCC2(CCN(c3cnc(C(=O)Nc4cc(F)cc5cccnc45)cn3)CC2)[C@H]1N" : 31.7% (inactive)

Reported growth ( "CCCCCC[n+]1ccc(SCC(=O)n2ccc3ccccc32)c2ccccc21" ) = 73.3% (inactive)

----------
- Test system: SR leukemia
- experimental.details: NCI-60 one-dose screen, 48 h (100 = growth as untreated, 0 = no growth, -100 = all killed)
- run.conditions: 10 µM unless noted
This is part of a sample that, as a whole, favours compounds with a hit. Of some 83,000 tested, about 20% had one in any assay.
Kindly return True if reported growth is no lower than 10%; return False if it is lower.

Challenge: # check: growth of "Cc1ccc2c(n1)C(=O)C(Cl)=C(Nc1ccc(C)c(C)c1)C2=O" is greater than or equal to 10%
Response given: True

Challenge: API: above_or_equal(metric=growth, cutoff=10%) for item "C1=CC(c2nn3c(-c4ccccc4)nnc3s2)=Cc2ccccc2O1"
Response given: True

Challenge: Quick check, growth >= 10%? "COc1cc2cc(Oc3ccc(NC(=O)Nc4ccc(F)c(C(F)(F)F)c4)cc3)c(C)nc2cc1OCCN(C)C"
Response given: False

Challenge: Exam item: decide whether the reported growth for "CC1(C)CC[C@]2(C(=O)NCCCCCCN(CCCN)CCCN)CC[C@]3(C)C(=CC[C@@H]4[C@@]5(C)CC[C@H](O)C(C)(C)[C@@H]5CC[C@]43C)[C@@H]2C1" is at least 10%.
Response given: True

Challenge: Quick check: does NS(=O)(=O)c1ccc(Nc2nc(Nc3ccccc3)nc(N3N=C(c4ccc(Cl)cc4)CC3c3ccc(Cl)cc3)n2)cc1 (stereo not given) have growth greater than or equal to 10%?
Response given: False

Challenge: Reported growth reaches at least 10% for "O=C(Nc1ccc(Cl)c(C(F)(F)F)c1)Nc1ccc2oc(=O)ccc2c1" ?
Response given: True

Challenge: Decide: is the reported value of growth for "N#Cc1c(-c2cccs2)cc(-c2cnccn2)nc1SCC(=O)N/N=C/c1ccccc1" equal to or greater than 10%?
Response given: True

Challenge: Is growth at least 10%? Consider "NS(=O)(=O)c1cccc(Nc2nc(SCC(=O)c3ccc(Cl)cc3)nc3c2CCC3)c1"
Response given: True

Challenge: hey, is growth for this one >= 10%? COc1ccc(C2CC(c3cccc(OCCCCOc4cccc(C5=NOC(c6ccc(OC)cc6)C5)c4)c3)=NO2)cc1 (stereo not given)
Response given: True

Challenge: Could you please find out whether "CS(=O)(=O)c1nccc(-c2c(-c3cccc(OCc4ccc(Cl)c(C(F)(F)F)c4)c3)nc3sccn23)n1" has growth that meets 10% or exceeds it?
Response given: False
